Tested Target: Huntingtin (Homo sapiens) (UniProt P42858)
Sequence (P42858 whole entry, looked up, change not shown): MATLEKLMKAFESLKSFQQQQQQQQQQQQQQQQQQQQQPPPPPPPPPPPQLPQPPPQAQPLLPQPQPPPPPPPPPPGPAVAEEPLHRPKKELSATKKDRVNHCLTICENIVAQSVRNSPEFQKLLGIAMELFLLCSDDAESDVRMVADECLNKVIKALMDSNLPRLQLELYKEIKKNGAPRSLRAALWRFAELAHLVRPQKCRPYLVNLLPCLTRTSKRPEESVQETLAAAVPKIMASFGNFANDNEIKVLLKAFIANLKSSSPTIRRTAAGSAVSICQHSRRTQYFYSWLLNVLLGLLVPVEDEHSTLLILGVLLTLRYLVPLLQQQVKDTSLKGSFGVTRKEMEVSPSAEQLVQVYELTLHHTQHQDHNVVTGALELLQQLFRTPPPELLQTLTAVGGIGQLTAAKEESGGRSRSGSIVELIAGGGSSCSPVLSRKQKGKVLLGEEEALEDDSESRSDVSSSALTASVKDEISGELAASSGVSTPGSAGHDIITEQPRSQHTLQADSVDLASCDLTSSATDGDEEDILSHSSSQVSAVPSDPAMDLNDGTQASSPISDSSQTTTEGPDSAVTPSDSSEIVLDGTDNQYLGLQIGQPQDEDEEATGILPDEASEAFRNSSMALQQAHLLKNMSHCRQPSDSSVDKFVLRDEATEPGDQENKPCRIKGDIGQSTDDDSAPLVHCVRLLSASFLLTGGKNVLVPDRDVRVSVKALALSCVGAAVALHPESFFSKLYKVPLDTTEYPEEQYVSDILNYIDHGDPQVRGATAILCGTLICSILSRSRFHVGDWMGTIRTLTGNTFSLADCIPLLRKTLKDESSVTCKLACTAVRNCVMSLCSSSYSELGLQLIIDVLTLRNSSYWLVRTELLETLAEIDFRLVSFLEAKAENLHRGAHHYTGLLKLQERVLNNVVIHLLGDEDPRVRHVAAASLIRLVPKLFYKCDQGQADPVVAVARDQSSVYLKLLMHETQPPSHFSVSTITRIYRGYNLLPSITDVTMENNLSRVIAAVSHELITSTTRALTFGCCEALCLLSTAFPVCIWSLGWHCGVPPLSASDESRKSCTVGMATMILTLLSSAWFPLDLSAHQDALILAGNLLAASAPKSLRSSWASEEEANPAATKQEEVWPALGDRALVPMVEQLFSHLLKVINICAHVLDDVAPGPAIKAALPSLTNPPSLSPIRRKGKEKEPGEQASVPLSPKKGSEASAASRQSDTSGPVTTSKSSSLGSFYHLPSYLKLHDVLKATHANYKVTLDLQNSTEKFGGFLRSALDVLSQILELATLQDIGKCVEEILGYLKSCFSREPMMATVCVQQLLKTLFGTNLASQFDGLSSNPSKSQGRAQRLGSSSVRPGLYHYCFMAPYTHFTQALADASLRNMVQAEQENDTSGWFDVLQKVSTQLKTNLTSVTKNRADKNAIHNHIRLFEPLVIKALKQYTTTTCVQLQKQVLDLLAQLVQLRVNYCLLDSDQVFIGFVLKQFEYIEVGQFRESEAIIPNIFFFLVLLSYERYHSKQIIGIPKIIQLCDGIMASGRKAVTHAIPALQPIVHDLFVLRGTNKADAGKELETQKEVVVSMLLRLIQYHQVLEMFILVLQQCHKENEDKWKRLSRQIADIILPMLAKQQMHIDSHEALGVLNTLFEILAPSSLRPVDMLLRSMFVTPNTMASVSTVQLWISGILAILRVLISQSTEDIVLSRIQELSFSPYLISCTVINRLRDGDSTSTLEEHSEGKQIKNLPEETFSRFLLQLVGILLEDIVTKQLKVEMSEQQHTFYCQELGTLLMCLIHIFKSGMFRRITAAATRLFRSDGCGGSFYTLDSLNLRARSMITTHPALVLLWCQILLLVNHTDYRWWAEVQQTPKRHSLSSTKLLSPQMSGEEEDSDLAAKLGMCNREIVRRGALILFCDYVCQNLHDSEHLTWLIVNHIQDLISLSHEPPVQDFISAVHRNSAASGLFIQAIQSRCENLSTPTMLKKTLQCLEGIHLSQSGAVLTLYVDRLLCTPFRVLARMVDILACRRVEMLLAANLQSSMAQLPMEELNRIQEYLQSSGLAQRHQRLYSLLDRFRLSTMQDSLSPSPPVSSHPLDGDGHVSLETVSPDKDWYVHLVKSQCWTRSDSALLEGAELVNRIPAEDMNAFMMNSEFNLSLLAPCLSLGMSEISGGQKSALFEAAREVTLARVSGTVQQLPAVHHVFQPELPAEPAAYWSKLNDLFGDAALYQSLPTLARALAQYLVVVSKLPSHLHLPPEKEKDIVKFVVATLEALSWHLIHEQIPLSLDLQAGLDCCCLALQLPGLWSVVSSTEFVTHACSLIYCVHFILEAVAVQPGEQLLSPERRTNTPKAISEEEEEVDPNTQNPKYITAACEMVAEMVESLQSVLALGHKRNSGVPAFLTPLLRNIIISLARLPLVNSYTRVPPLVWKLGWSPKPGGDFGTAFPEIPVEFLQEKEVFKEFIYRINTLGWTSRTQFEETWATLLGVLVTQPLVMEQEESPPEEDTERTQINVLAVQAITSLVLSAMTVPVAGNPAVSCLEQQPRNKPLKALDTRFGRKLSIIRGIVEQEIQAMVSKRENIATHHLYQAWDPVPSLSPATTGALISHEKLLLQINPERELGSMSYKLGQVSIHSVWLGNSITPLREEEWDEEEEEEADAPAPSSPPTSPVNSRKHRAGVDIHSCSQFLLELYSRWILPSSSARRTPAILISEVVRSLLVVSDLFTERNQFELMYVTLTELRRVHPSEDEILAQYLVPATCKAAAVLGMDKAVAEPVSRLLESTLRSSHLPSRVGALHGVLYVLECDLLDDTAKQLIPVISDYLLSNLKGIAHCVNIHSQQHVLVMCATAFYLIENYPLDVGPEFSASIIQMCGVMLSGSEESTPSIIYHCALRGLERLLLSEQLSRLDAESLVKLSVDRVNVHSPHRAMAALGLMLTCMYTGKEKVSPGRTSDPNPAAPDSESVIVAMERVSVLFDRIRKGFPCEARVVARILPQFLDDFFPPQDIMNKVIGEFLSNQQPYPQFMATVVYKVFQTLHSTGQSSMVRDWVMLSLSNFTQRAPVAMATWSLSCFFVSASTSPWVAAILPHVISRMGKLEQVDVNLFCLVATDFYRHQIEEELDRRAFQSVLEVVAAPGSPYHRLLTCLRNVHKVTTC
Assay Method Text: mutant huntingtin-calmodulin interaction inhibitors – biochemical, AlphaScreen, primary screen (AID 1671202)
Condition Notes: AlphaScreen His-mHTT/GST-CaM binding, luminescence; at 15 µM
Hit rate of the full screen: of about 190,000 compounds, about 6,900 (3.6%) were called active. No stated cut-off is given here; in the data, active means inhibition above about 50%; inactive means the rest. The list comes from a sample in which actives are over-represented; it also holds close analogues and randomly drawn compounds.
Outcomes: true = active, false = inactive

{"Molecule": "CCc1cccc(NC(=O)N2CCc3c(c(-c4nc(C)no4)nn3C)C2)c1", "Tested Target": "Huntingtin (Homo sapiens) (UniProt P42858)", "Assigned Category": "true"}
{"Molecule": "COc1ccc(C2CC(C(F)(F)F)n3ncc(C(=O)Nc4ccc(C)c(C)c4)c3N2)cc1OC (stereo not given)", "Tested Target": "Huntingtin (Homo sapiens) (UniProt P42858)", "Assigned Category": "true"}
{"Molecule": "CCOc1ccc(CN2C(=O)CCC2(C)C(=O)NC2CCCC2)cc1OC (stereo not given)", "Tested Target": "Huntingtin (Homo sapiens) (UniProt P42858)", "Assigned Category": "false"}
{"Molecule": "OC(COc1ccccc1Br)CN1CCN(Cc2ccccc2)CC1 (stereo not given)", "Tested Target": "Huntingtin (Homo sapiens) (UniProt P42858)", "Assigned Category": "false"}
{"Molecule": "CC1=C(C#N)C(=O)NC(=O)/C1=C\\c1ccc(-c2ccc(Cl)c(C(=O)O)c2)o1", "Tested Target": "Huntingtin (Homo sapiens) (UniProt P42858)", "Assigned Category": "false"}
{"Molecule": "Cc1cccc(NC(=O)N2CCc3c(c(-c4nc(C5CC5)no4)nn3C)C2)c1", "Tested Target": "Huntingtin (Homo sapiens) (UniProt P42858)", "Assigned Category": "false"}
{"Molecule": "COc1ccc(-c2nc(SCC(=O)Nc3ccc(OC(F)(F)F)cc3)[nH]c(=O)c2C#N)cc1", "Tested Target": "Huntingtin (Homo sapiens) (UniProt P42858)", "Assigned Category": "false"}
{"Molecule": "N#C/C(=C\\c1ccc(O)cc1)c1nc(-c2ccc(Cl)cc2)cs1", "Tested Target": "Huntingtin (Homo sapiens) (UniProt P42858)", "Assigned Category": "true"}
{"Molecule": "Cc1ccc(-c2csc(/C(C#N)=C/c3ccc([N+](=O)[O-])cc3)n2)cc1", "Tested Target": "Huntingtin (Homo sapiens) (UniProt P42858)", "Assigned Category": "false"}
{"Molecule": "COc1cc(OC)c(N2C=C(C#N)S(=O)(=O)c3ccc(F)cc32)cc1Cl", "Tested Target": "Huntingtin (Homo sapiens) (UniProt P42858)", "Assigned Category": "false"}
